- experimental system: Phosphodiesterase 5A1 (PDE5A1) (Homo sapiens)
attribute measured: IC50

chem smiles	value observed
CC(C)(C)c1ccc(CC[C@@](O)(CC(=O)O)C(=O)O)cc1	> 30 µM

----------
- experimental system: UniProtKB Q96PD6
- Sequence (Q96PD6 1-335): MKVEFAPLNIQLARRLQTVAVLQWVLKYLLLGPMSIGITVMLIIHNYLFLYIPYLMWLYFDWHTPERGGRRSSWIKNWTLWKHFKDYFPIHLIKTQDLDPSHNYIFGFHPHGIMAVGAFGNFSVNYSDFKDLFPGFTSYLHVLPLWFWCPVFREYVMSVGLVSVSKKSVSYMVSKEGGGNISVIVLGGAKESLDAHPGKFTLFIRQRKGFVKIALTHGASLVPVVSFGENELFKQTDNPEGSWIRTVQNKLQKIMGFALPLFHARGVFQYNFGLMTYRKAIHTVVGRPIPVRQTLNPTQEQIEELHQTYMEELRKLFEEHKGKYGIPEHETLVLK
attribute measured: IC50

chem smiles	attribute measured	value observed
CC(C)(C)c1ccc(CC[C@@](O)(CC(=O)O)C(=O)O)cc1	IC50	> 50 µM

----------
- method: pKa
- Assay type: physicochemical

chem smiles	pKa
CC(C)(C)c1ccc(CC[C@@](O)(CC(=O)O)C(=O)O)cc1	3.1

----------
- experimental system: Diacylglycerol acyltransferase 2 (DGAT2) (Homo sapiens, UniProt Q96PD7)
- Sequence (Q96PD7 whole entry, species assumed): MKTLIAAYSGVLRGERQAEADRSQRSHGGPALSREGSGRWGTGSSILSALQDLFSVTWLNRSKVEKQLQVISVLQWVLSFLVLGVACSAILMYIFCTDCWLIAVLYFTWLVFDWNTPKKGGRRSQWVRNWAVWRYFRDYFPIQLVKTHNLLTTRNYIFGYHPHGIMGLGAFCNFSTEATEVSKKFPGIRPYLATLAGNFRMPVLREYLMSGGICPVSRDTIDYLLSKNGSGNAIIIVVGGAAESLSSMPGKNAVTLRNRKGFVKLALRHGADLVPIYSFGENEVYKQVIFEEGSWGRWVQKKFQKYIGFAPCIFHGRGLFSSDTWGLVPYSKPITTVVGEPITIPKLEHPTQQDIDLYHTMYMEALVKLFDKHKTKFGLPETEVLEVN
pIC50: −log10 of the molar value.

compound	experimental system	pIC50
CC(C)(C)c1ccc(CC[C@@](O)(CC(=O)O)C(=O)O)cc1 [Compound 2]	Diacylglycerol acyltransferase 2 (DGAT2) (Homo sapiens, UniProt Q96PD7)	< 4.30

----------
- experimental system: Monoacylglycerol acyltransferase 3 (MGAT3) (Homo sapiens)
- Sequence (Q86VF5 1-341): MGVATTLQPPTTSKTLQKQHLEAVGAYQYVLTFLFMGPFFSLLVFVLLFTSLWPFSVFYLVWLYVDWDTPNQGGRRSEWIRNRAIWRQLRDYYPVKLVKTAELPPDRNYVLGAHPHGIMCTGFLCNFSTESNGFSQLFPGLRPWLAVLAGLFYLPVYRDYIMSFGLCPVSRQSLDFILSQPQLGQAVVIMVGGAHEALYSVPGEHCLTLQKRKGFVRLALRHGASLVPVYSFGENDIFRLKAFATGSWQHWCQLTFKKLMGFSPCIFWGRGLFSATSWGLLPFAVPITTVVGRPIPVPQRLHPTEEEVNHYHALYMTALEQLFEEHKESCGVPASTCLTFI
pIC50: −log10 of the molar value.
attribute measured: pIC50

compound	attribute measured	value observed
CC(C)(C)c1ccc(CC[C@@](O)(CC(=O)O)C(=O)O)cc1 [Compound 2]	pIC50	< 4.30

----------
- method: Passive permeability, MDCK-LE cell monolayer
- Format: in vitro ADME
- condition details: dog; MDCK-LE cell monolayer; read-out: Papp (apparent passive permeability)

compound	Papp
CC(C)(C)c1ccc(CC[C@@](O)(CC(=O)O)C(=O)O)cc1 [Compound 2]	1.4 ×10⁻⁶ cm/s

----------
Measured Kp uu at 1 h, 1 µM, listed per entry.
- method: Intra-/extracellular unbound concentration ratio (Kpuu) in HEKNaCT cells
- Assay type: in vitro ADME
- condition details: human, ratio of free intracellular and media concentration after 1 h incubation at 1 μM, geometric mean of 3 replicates ± SD
- Method: kpuu values were determined by measuring total cell and media concentrations corrected for their respective fraction unbound. […] Intra- and extracellular concentrations of compound in cellular assays. kpuu values were determined by measuring total cell and media concentrations corrected for their respective […]
attribute measured: Kp uu at 1 h, 1 µM

chem smiles	attribute measured	value observed
CC(C)(C)c1ccc(CC[C@](O)(CC(=O)O)C(=O)O)cc1	Kp uu at 1 h, 1 µM	0.6
CC(C)(C)c1ccc(CC[C@@](O)(CC(=O)O)C(=O)O)cc1	Kp uu at 1 h, 1 µM	29
